Reported CC50 at 48 h values for a set of compounds
assay: Cytotoxicity against MDCK cells after 48 hrs by CellTiter96 aqueous non-radioactive cell proliferation assay; assay type: cell-based, Canis lupus familiaris; conditions: dog

Below: 2 compounds and their reported CC50 at 48 h.
| Compound | Test Value |
| --- | --- |
| CCC(CC)O[C@@H]1C=C(C(=O)O)C[C@H](N/C(N)=N/C(=O)[C@@H](C)c2ccc3cc(OC)ccc3c2)[C@H]1NC(C)=O | > 100 µM |
| CCC(CC)O[C@@H]1C=C(C(=O)O)C[C@H](N)[C@H]1NC(C)=O [OSELTAMIVIR CARBOXYLATE] | > 100 µM |

Lab note: `CCC(CC)O[C@@H]1C=C(C(=O)O)C[C@H](NC(=N)N)[C@H]1NC(C)=O` gave CC50 at 48 h of > 100 µM

* * *

assay: Half life in rabbit plasma by HPLC method; assay type: ADME, cell-free, Oryctolagus cuniculus
Property Name: half-life (h)
Please respond with the number in h and leave the unit unwritten.

Lab note: `CCCCCCCC(=O)/N=C(\N)N[C@H]1CC(C(=O)O)=C[C@@H](OC(CC)CC)[C@@H]1NC(C)=O` gave half-life of 96
